- Tested on: MDA-MB-231
- assay notes: Cytotoxicity against human MDA-MB-231 cells by MTT assay
- Assay type: functional, cell-based
experimental readout: pIC50
One number for each entry, as −log10 of the molar value.

The following compounds have reported results that may help.
smiles notation: Cc1coc2c3c(ccc2c1=O)OC[C@H]1[C@@H]3c2c(ccc(C(=O)c3ccccc3)c2O)OC1(C)C
subject of test: MDA-MB-231
pIC50: 5.25
--
smiles notation: COc1cccc2c1C(=O)c1c(O)c3c(c(O)c1C2=O)C[C@@](O)(C(=O)CO)C[C@@H]3O[C@H]1C[C@H](N)[C@H](O)[C@H](C)O1
subject of test: MDA-MB-231
pIC50: 6.30

Shifting focus to the compound that follows.
(Q) Form field: reported pIC50 of "CCC(=O)c1ccc2c(c1O)[C@@H]1c3c(ccc4c(=O)c(-c5ccccc5)c(C)oc34)OC[C@@H]1C(C)(C)O2"
(A) 5.21

====

What pIC50 was measured for each of the following?
- Test system: MDA-MB-231
- assay notes: Cytotoxicity against human MDA-MB-231 cells by MTT assay
- Format: functional, cell-based
pIC50: −log10 of the molar value.

smiles notation: Cc1coc2c3c(ccc2c1=O)OC[C@H]1[C@@H]3c2c(ccc(C(=O)Cc3ccccc3)c2O)OC1(C)C
experimental readout: pIC50
assay value: < 4.00
//
smiles notation: CCC(=O)c1ccc2c(c1O)[C@@H]1c3c(ccc4c(=O)c(C)c(C)oc34)OC[C@@H]1C(C)(C)O2
experimental readout: pIC50
assay value: < 4.00

Shifting focus to the molecule that follows.
(Q) Find the measured pIC50: item "CCC(=O)c1ccc2c(c1O)[C@H]1c3c(ccc4c(=O)c(C)coc34)OC[C@H]1C(C)(C)O2" , target or system MDA-MB-231.
(A) < 4.00
